molecular target: T1, monkey GPC3-His protein (monkey); test: ELISA, monkey GPC3-His coated; antibody 66.66 nM
T1 construct: Bought protein; also called monkey GPC3 protein
We begin with a simple list: items and their reported OD450 nm.
Just the number, please, no unit attached.

binder	OD450 nm
hAb005LH1L1b (antibody, human IgG1, V domains shown, Humanized F3.54.12, H1+L1b) VH: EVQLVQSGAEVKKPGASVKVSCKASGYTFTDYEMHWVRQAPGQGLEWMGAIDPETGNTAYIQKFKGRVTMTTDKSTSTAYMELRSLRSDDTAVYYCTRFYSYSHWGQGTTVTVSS VL: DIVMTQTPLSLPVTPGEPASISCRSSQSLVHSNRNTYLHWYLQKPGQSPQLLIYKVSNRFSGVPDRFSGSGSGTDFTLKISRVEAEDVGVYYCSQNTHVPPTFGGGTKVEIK	1.16
hAb001H2L1a (antibody, human IgG1, V domains shown, Humanized F2.169.2, H2+L1a) VH: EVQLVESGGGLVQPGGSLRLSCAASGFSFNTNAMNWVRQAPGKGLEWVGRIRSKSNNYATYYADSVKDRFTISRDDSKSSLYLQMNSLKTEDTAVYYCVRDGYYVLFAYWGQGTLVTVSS VL: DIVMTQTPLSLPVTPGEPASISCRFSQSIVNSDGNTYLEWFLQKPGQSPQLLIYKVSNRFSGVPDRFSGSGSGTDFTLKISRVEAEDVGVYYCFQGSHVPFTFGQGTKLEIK	2.22
hAb003LH2L1b (antibody, human IgG1, V domains shown, Humanized F2.154.1, H2+L1b) VH: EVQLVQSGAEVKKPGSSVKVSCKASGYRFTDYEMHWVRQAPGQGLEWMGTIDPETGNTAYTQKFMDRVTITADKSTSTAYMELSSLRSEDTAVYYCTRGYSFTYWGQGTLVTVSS VL: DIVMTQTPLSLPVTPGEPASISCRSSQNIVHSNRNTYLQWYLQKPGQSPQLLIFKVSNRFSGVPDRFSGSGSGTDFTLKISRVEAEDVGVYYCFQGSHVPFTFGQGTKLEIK	2.35

hAb001H1L1a (antibody, human IgG1, V domains shown, Humanized F2.169.2, H1+L1a) VH: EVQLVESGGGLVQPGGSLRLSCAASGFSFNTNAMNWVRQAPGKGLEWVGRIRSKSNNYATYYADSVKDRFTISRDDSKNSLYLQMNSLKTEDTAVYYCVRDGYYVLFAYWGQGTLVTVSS VL: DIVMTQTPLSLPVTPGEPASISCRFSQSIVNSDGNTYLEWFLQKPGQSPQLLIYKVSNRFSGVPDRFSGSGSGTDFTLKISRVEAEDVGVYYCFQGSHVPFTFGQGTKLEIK yielded OD450 nm of 2.16
